I'd be grateful if you could share measured kinase still bound, per cent of control for these entries.
# Study system: UniProtKB P48736
# Sequence (P48736 whole entry, looked up): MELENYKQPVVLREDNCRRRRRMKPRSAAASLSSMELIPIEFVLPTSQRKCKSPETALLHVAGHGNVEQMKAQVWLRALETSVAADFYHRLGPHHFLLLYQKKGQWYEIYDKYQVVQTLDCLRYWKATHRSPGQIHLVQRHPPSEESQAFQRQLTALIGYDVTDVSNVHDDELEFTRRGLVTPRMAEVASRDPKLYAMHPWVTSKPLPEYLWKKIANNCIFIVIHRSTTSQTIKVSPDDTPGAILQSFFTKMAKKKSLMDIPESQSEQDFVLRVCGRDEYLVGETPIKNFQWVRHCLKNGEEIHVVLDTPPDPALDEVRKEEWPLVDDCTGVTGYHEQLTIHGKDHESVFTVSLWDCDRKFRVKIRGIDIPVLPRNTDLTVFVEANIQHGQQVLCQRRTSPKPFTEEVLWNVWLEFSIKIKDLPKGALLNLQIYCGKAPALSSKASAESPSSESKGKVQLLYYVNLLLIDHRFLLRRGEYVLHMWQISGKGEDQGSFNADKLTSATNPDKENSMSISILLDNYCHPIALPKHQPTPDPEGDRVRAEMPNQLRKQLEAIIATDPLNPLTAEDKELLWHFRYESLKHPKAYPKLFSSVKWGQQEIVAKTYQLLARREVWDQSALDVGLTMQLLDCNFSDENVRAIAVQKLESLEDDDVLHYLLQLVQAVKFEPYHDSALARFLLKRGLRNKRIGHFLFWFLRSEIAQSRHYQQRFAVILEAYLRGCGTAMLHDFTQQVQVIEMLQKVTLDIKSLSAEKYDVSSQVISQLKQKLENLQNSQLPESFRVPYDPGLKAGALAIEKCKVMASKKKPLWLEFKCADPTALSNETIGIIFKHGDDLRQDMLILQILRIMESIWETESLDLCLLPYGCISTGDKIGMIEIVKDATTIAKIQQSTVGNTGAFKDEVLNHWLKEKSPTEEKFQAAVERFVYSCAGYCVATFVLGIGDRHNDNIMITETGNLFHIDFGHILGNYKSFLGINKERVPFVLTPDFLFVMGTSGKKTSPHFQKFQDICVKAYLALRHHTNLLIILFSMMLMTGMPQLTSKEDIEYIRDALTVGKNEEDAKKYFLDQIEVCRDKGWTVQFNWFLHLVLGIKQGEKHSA
# Test protocol: KINOMEscan competition binding
# Study conditions: compound 10.0 µM
Numbers only, in %.

CCCS(=O)(=O)Nc1ccc(F)c(C(=O)c2c[nH]c3ncc(-c4ccc(Cl)cc4)cc23)c1F    19
Cc1ccc2nc(NCCN)c3ncc(C)n3c2c1    100

Moving on to another compound below.
## Task Which kinase still bound, per cent of control is reported for this compound? CC[C@@H]1C(=O)N(C)c2cnc(Nc3ccc(C(=O)NC4CCN(C)CC4)cc3OC)nc2N1C1CCCC1
## Result 100

* * *

I'd be grateful if you could share measured kinase still bound, per cent of control for these entries.
# Study system: UniProt:P07948
# Sequence (P07948 whole entry, looked up): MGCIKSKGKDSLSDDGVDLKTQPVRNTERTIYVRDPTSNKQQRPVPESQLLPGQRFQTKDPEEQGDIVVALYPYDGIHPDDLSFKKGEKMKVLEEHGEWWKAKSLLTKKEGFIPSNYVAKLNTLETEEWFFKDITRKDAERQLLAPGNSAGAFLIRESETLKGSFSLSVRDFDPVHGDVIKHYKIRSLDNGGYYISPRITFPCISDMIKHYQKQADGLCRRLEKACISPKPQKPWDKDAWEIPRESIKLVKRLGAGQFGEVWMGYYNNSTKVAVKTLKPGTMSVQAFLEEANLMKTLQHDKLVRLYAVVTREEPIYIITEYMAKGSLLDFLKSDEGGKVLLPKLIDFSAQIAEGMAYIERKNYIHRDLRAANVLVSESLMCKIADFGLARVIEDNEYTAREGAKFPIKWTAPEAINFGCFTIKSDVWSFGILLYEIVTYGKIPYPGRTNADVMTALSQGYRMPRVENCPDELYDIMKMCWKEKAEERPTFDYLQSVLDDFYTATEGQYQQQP
# Test protocol: KINOMEscan competition binding
# Study conditions: compound 10.0 µM
Answers are plain numbers, in %.

CC[C@@H]1C(=O)N(C)c2cnc(Nc3ccc(C(=O)NC4CCN(C)CC4)cc3OC)nc2N1C1CCCC1    100
O=C1Nc2ccc(I)cc2/C1=C/c1cc(Br)c(O)c(Br)c1    86
CN(C)C/C=C/C(=O)Nc1cccc(Nc2ncc3c(n2)N(C)c2ccccc2C(=O)N3C)c1    52
CCOc1cc2ncc(C#N)c(Nc3ccc(OCc4ccccn4)c(Cl)c3)c2cc1NC(=O)/C=C/CN(C)C    34
C[C@@H](Oc1cc(-n2cnc3ccc(CN4CCN(C)CC4)cc32)sc1C(N)=O)c1ccccc1C(F)(F)F    99

Give me kinase still bound, per cent of control for each of these molecules, listed below.
1. COc1cc(N2CCN(C)CC2)ccc1Nc1nc(N)c(C(=O)c2c(Cl)cccc2Cl)s1
2. Cc1ccc(NC(=O)c2cccc(C(C)(C)C#N)c2)cc1Nc1ccc2ncn(C)c(=O)c2c1

## Result
1: 100; 2: 0.3

* * *

# Study system: ROS1 (human)
# Test protocol: KINOMEscan competition binding
# Study conditions: compound 10.0 µM
Parameter: kinase still bound, per cent of control (%)
One number for each entry, in %.

C=CC(=O)Nc1cccc(Oc2nc(Nc3ccc(N4CCN(C)CC4)cc3OC)ncc2Cl)c1    5
COc1cc(C(=O)NC2CCN(C)CC2)ccc1Nc1ncc2c(n1)N(C1CCCC1)CCC(=O)N2C(C)C    100

Give me kinase still bound, per cent of control for each of these compounds, listed below.
1. CCOc1cc2ncc(C#N)c(Nc3ccc(OCc4ccccn4)c(Cl)c3)c2cc1NC(=O)/C=C/CN(C)C
2. C=CC(=O)Nc1cc(NC(=O)c2ccc(C)c(NC(=O)c3ccno3)c2)cc(C(F)(F)F)c1

## Result
1: 96; 2: 100

Give me kinase still bound, per cent of control for each of these compounds, listed below.
1. C=CC(=O)Nc1cccc(Nc2nc(N[C@H]3CC[C@H](N(C)C)CC3)nc3c2ncn3C(C)C)c1
2. CC[C@@H]1C(=O)N(C)c2cnc(Nc3ccc(C(=O)NC4CCN(C)CC4)cc3OC)nc2N1C1CCCC1
3. OCCCNc1cc(-c2ccnc(Nc3cccc(Cl)c3)n2)ccn1
4. O=C(NC1CC1)c1cccc(-c2ccc3c(NC(=O)C4CC4)n[nH]c3c2)c1
5. CCN1CCN(Cc2ccc(Nc3ncc4c(n3)N(C)c3ccccc3C(=O)N4C)cc2C(F)(F)F)CC1
6. O=C1Nc2ccc(I)cc2/C1=C/c1cc(Br)c(O)c(Br)c1
7. COc1cc(C(=O)NC2CCN(C)CC2)ccc1Nc1ncc2c(n1)N(C1CCCC1)C(C)CC(=O)N2C (stereo not given)

## Result
1. 99
2. 28
3. 100
4. 100
5. 11
6. 99
7. 100

Give me kinase still bound, per cent of control for each of these compounds, listed below.
1. CN(C)C/C=C/C(=O)Nc1cccc(Nc2ncc3c(n2)N(C)c2ccccc2C(=O)N3C)c1
2. CCC(=O)N1CCN(c2ccc(-n3c(=O)ccc4cnc5ccc(-c6cnc7ccccc7c6)cc5c43)cc2C(F)(F)F)CC1

## Result
1. 27
2. 71

Give me kinase still bound, per cent of control for each of these compounds, listed below.
1. N#Cc1c(NC(=O)c2cccc3ccccc23)sc2c1CCCC2
2. O=C(O)c1ccc(Nc2ncc3c(n2)-c2ccc(Cl)cc2C(c2c(F)cccc2F)=NC3)cc1
3. O=C(NOC[C@H](O)CO)c1ccc(F)c(F)c1Nc1ccc(I)cc1F
4. Cc1cc([C@@H](C)Nc2ccccc2C(=O)O)c2nc(N3CCOCC3)cc(=O)n2c1
5. C[C@@H](Oc1cc(-n2cnc3ccc(CN4CCN(C)CC4)cc32)sc1C(N)=O)c1ccccc1C(F)(F)F
6. Cc1ccc(NC(=O)c2cccc(C(C)(C)C#N)c2)cc1Nc1ccc2ncn(C)c(=O)c2c1
7. COc1cc(N2CCN(C)CC2)ccc1Nc1nc(N)c(C(=O)c2c(Cl)cccc2Cl)s1
8. Cc1ccc(C(=O)Nc2cccc(C(F)(F)F)c2)cc1Nc1cncc(C(N)=O)c1

## Result
1. 90
2. 23
3. 92
4. 100
5. 84
6. 100
7. 11
8. 100

Give me kinase still bound, per cent of control for each of these compounds, listed below.
1. CCCS(=O)(=O)Nc1ccc(F)c(C(=O)c2c[nH]c3ncc(-c4ccc(Cl)cc4)cc23)c1F
2. Cc1ccc2nc(NCCN)c3ncc(C)n3c2c1
3. Cn1c(=O)n(-c2ccc(C(C)(C)C#N)cc2)c2c3cc(-c4cnc5ccccc5c4)ccc3ncc21

## Result
1: 100; 2: 77; 3: 100

## Task # query: kinase still bound, per cent of control | item Nc1ccc(-c2ccc3ncc4ccc(=O)n(-c5cccc(C(F)(F)F)c5)c4c3c2)cn1 | system: ROS1 (human)
## Result 82

* * *

# Study system: UniProtKB Q14164
# Sequence (Q14164 whole entry, looked up): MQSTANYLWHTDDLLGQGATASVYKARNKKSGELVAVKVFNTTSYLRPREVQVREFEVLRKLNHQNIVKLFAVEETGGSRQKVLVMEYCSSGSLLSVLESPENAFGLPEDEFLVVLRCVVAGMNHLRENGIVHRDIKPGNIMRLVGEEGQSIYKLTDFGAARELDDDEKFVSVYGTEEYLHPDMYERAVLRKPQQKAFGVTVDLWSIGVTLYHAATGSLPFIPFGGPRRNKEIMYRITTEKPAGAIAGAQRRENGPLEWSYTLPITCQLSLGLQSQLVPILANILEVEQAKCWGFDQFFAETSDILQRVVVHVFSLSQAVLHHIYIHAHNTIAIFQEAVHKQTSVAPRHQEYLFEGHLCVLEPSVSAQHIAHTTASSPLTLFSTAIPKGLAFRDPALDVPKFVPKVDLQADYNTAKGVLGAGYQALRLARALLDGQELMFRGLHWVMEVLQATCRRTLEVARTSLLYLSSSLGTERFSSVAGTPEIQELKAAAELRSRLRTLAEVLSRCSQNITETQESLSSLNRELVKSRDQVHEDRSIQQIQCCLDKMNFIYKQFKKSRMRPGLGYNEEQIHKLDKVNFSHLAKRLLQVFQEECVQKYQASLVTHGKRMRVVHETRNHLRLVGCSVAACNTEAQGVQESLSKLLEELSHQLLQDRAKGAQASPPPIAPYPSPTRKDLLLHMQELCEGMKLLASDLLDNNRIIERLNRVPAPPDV
# Test protocol: KINOMEscan competition binding
# Study conditions: compound 10.0 µM
I'd be grateful if you could share measured kinase still bound, per cent of control for these entries.
One number for each entry, in %.

CCCS(=O)(=O)Nc1ccc(F)c(C(=O)c2c[nH]c3ncc(-c4ccc(Cl)cc4)cc23)c1F    100
C=CC(=O)Nc1cc(NC(=O)c2ccc(C)c(NC(=O)c3ccno3)c2)cc(C(F)(F)F)c1    100
CN(C)C/C=C/C(=O)Nc1cccc(Nc2ncc3c(n2)N(C)c2ccccc2C(=O)N3C)c1    100
N#Cc1c(NC(=O)c2cccc3ccccc23)sc2c1CCCC2    100
COc1cc(C(=O)NC2CCN(C)CC2)ccc1Nc1ncc2c(n1)N(C1CCCC1)CCC(=O)N2C(C)C    100

Give me kinase still bound, per cent of control for each of these molecules, listed below.
1. OCCCNc1cc(-c2ccnc(Nc3cccc(Cl)c3)n2)ccn1
2. O=C1Nc2ccc(I)cc2/C1=C/c1cc(Br)c(O)c(Br)c1

## Result
[100, 86]

Give me kinase still bound, per cent of control for each of these molecules, listed below.
1. Cc1ccc(C(=O)Nc2cccc(C(F)(F)F)c2)cc1Nc1cncc(C(N)=O)c1
2. O=C(O)c1ccc(Nc2ncc3c(n2)-c2ccc(Cl)cc2C(c2c(F)cccc2F)=NC3)cc1

## Result
100
68

* * *

# Study system: ERBB3 (human) (UniProt P21860)
# Sequence (P21860 whole entry, looked up): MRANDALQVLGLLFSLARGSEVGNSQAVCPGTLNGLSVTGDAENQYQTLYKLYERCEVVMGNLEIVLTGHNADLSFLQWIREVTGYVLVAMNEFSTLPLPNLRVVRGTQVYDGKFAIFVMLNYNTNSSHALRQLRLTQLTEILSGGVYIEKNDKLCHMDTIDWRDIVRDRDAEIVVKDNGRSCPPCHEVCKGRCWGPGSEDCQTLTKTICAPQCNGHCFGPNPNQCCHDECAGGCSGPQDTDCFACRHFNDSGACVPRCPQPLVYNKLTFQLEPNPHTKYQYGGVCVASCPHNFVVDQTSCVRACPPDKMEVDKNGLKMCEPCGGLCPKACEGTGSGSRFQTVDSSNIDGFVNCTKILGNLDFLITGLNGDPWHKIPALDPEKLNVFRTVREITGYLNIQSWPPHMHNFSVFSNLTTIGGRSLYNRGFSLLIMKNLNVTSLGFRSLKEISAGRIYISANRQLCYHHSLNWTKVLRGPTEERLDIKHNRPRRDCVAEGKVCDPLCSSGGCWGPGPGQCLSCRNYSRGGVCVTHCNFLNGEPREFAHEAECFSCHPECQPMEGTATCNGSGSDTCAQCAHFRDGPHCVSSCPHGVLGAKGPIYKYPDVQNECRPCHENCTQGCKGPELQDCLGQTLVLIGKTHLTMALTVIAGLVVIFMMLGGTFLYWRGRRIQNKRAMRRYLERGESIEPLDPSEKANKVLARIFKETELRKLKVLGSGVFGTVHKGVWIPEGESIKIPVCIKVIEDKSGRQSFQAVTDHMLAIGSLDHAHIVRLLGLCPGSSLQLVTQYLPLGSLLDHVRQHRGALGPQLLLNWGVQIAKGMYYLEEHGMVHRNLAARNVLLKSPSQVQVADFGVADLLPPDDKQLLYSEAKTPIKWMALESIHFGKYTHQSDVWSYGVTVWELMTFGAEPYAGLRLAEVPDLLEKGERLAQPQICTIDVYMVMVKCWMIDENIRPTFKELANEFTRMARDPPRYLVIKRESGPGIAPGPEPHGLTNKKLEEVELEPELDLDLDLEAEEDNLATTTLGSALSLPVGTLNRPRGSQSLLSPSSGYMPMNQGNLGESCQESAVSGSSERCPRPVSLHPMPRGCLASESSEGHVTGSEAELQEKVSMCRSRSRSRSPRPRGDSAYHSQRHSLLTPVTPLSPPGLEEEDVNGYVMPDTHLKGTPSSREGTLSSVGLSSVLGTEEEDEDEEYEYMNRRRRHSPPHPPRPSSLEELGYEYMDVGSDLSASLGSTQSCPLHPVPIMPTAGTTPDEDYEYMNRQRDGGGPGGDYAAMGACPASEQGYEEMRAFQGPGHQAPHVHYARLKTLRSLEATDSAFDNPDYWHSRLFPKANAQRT
# Test protocol: KINOMEscan competition binding
# Study conditions: compound 10.0 µM
Decision: kinase still bound, per cent of control beneath 70% gives T; kinase still bound, per cent of control meeting or exceeding 70% gives F.

Solved cases (2 shown):
Cc1cc([C@@H](C)Nc2ccccc2C(=O)O)c2nc(N3CCOCC3)cc(=O)n2c1    F
COc1cc(N2CCN(C)CC2)ccc1Nc1nc(N)c(C(=O)c2c(Cl)cccc2Cl)s1    T

## Task Does the reported kinase still bound, per cent of control of CCOc1cc2ncc(C#N)c(Nc3ccc(OCc4ccccn4)c(Cl)c3)c2cc1NC(=O)/C=C/CN(C)C stay below 70%?
## Result T

## Task Does the reported kinase still bound, per cent of control of O=C(O)c1ccc(Nc2ncc3c(n2)-c2ccc(Cl)cc2C(c2c(F)cccc2F)=NC3)cc1 stay below 70%?
## Result F

* * *

# Study system: STK24 (human)
# Test protocol: KINOMEscan competition binding
# Study conditions: compound 10.0 µM
Parameter: kinase still bound, per cent of control (%)
Give bare numbers, in %.

Use the examples below as a reference point.
C=CC(=O)Nc1cccc(Nc2nc(N[C@H]3CC[C@H](N(C)C)CC3)nc3c2ncn3C(C)C)c1    43
Cc1ccc(C(=O)Nc2cccc(C(F)(F)F)c2)cc1Nc1cncc(C(N)=O)c1    100
O=C(O)c1ccc(Nc2ncc3c(n2)-c2ccc(Cl)cc2C(c2c(F)cccc2F)=NC3)cc1    76
O=C(NC1CC1)c1cccc(-c2ccc3c(NC(=O)C4CC4)n[nH]c3c2)c1    82
Nc1ccc(-c2ccc3ncc4ccc(=O)n(-c5cccc(C(F)(F)F)c5)c4c3c2)cn1    98

Give me kinase still bound, per cent of control for each of these compounds, listed below.
1. CCC(=O)N1CCN(c2ccc(-n3c(=O)ccc4cnc5ccc(-c6cnc7ccccc7c6)cc5c43)cc2C(F)(F)F)CC1
2. C=CC(=O)Nc1cccc(Oc2nc(Nc3ccc(N4CCN(C)CC4)cc3OC)ncc2Cl)c1

## Result
[100, 100]

Give me kinase still bound, per cent of control for each of these compounds, listed below.
1. CC[C@@H]1C(=O)N(C)c2cnc(Nc3ccc(C(=O)NC4CCN(C)CC4)cc3OC)nc2N1C1CCCC1
2. C[C@@H](Oc1cc(-n2cnc3ccc(CN4CCN(C)CC4)cc32)sc1C(N)=O)c1ccccc1C(F)(F)F
3. COc1cc(C(=O)NC2CCN(C)CC2)ccc1Nc1ncc2c(n1)N(C1CCCC1)C(C)CC(=O)N2C (centres undefined)
4. Cc1cc([C@@H](C)Nc2ccccc2C(=O)O)c2nc(N3CCOCC3)cc(=O)n2c1
5. C=CC(=O)Nc1cc(NC(=O)c2ccc(C)c(NC(=O)c3ccno3)c2)cc(C(F)(F)F)c1

## Result
100
81
100
100
100

Give me kinase still bound, per cent of control for each of these compounds, listed below.
1. O=C1Nc2ccc(I)cc2/C1=C/c1cc(Br)c(O)c(Br)c1
2. Cn1c(=O)n(-c2ccc(C(C)(C)C#N)cc2)c2c3cc(-c4cnc5ccccc5c4)ccc3ncc21
3. Cc1ccc2nc(NCCN)c3ncc(C)n3c2c1
4. O=C(NOC[C@H](O)CO)c1ccc(F)c(F)c1Nc1ccc(I)cc1F
5. CCN1CCN(Cc2ccc(Nc3ncc4c(n3)N(C)c3ccccc3C(=O)N4C)cc2C(F)(F)F)CC1
6. COc1cc(N2CCN(C)CC2)ccc1Nc1nc(N)c(C(=O)c2c(Cl)cccc2Cl)s1
7. COc1cc(C(=O)NC2CCN(C)CC2)ccc1Nc1ncc2c(n1)N(C1CCCC1)CCC(=O)N2C(C)C

## Result
1: 97; 2: 100; 3: 81; 4: 88; 5: 35; 6: 77; 7: 100
